- Assay system: Trifunctional purine biosynthetic protein adenosine-3 (Homo sapiens, UniProt P22102)
- Sequence (P22102 whole entry): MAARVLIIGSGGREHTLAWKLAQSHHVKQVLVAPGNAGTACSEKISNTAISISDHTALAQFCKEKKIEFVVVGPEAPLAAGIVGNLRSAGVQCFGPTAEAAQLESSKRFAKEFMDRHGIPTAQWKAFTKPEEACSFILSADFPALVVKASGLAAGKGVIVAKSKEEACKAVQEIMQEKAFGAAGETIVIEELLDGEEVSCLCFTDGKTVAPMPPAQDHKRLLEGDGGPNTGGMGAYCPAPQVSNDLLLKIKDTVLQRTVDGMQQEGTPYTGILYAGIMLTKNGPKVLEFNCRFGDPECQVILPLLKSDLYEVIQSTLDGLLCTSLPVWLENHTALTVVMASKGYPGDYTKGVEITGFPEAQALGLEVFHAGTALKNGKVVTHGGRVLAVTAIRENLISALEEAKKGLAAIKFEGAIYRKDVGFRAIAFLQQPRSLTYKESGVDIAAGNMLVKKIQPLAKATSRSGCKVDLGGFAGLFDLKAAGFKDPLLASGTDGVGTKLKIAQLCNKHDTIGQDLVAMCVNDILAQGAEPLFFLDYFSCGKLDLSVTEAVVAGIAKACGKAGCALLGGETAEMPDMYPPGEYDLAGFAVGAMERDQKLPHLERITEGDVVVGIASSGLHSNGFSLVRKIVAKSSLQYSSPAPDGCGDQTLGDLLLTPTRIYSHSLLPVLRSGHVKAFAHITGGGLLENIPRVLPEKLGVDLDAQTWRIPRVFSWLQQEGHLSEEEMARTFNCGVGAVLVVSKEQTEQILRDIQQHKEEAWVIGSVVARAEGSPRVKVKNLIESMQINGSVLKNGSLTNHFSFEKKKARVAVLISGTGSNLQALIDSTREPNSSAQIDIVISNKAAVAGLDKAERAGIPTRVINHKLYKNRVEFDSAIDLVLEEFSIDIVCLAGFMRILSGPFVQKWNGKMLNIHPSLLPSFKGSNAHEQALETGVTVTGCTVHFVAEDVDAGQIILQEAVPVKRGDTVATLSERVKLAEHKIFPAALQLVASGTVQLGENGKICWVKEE
- Experimental protocol: Inhibition of the GAR transformylase in MOLT-4 human leukemia cells
Parameter: IC50 (nM)
Give the value, in units of nM, as a plain number.

In: Which IC50 reading was recorded for the compound Nc1nc2c(c(=O)[nH]1)NC(CCCc1ccc(C(=O)NC(CCC(=O)O)C(=O)O)cc1)CN2 (stereo unspecified) ?
Out: 0.014
